- target: Recombinant human TSG-6 (R&D Biosystems, catalog #2104-TS) (human, UniProt P98066 18-277)
- Sequence (P98066 18-277): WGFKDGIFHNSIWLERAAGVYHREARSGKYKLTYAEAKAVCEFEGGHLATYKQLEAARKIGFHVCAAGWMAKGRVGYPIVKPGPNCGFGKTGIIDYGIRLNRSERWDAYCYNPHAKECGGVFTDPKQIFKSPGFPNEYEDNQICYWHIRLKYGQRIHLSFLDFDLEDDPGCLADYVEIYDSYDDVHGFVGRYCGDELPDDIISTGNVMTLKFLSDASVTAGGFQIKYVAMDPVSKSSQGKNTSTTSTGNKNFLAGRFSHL
- assay_explanation: inhibition of HA binding to TSG-6; HA binding
pIC50: −log10 of the molar value.
What pIC50 was measured for each of the following?

Recorded result, 3E1 (antibody, V domains shown) VH: QVQLQQSGAELAKPGASVRLSCQASGYTFTSYWMHWVKQRPRQGLEWIGYIIPSSGYTKCHQKFKDKATLTADKSSSTAYMQLSSLTYEDSAVYYCARSTSGYPYYFDSWGQGTTLTVSS VL: ENVLTQSPAIMSASPGERVTMTCSATSSVSFMHWYQQKSSTSPKLWIYDTSKLASGVPGRFSGSGSGNSYSLTISSMEAEDVATYYCFQGSWYPLTFGAGTKLELKR , pIC50: < 6.18

Recorded result, 5A5 (antibody, V domains shown) VH: QVQLQQSGAELAKPGASVRLSCQASGYTFTTYWMHWVKQRPRQGLEWIGYIIPSSGYSKCHQKFKDKATLTADKSSNTASMQLSSLTYEDSAVYYCARSTSGYPYYFDYWGQGTTLTVSS VL: ENVLTQSPAIMSASPGEKVTMTCSATSSVSYMHWYQQKSSTSPKLWIYDTSKLASGVPGRFSGSGSGNSYSLTISSMEAEDVATYYCFQGSWYPLTFGAGTKLELKR , pIC50: < 6.18

Recorded result, 4F1 (antibody, V domains shown) VH: EVKLVESGGGLVQPGGSLSLSCAASGFTFTDYYMSWVRQPPGKALEWLGFIRHKAKGYTAEYSASVKGRFTISRDNSQSILYLQMNALRAEDSATYYCARLYYYGSPHWYFDVWGTGTTVTVSS VL: QIVLTQSPAIMSASPGEKVTMTCSASSSVSYMHWYQQKSGTSPKRWIYDTSKLASGVPARFSGSGSGTSYSLTISSMEAEDAATYYCQQWSSNPPTFGSGTELEIKR , pIC50: < 6.18

Recorded result, ID12 (antibody, V domains shown) VH: QVQLQQSGPELVKPGASVKLSCKTSGYTFTSYDINWVKQRPGQGLEWIGWIYPSDGSTKFNEKFKGMATLTVDTSSSTAYMELHSLTSEDSTVYFCARGLWYYGGGVDYWGQGTSVTVSS VL: DAVMTQTPLSLPVSLGDQASISCRSTQSLEDSNGNTYLNWYLQKPGQSPQLLIYRVSNRFSGVLDRFSGSGSGTDFTLKISRVEAEDLGVYFCLQVTHVPYTFGGGTKLEIKR , pIC50: < 6.18

Recorded result, anti-TSG-6 antibody of SEQ ID NO: 1 and SEQ ID NO: 2 (first entry of Table 1, clone name not printed) (antibody, V domains shown) VH: QVRLQQSGAELAKPGASVKLSCKASGYTFTSYWMHWVKQRPGQGLEWIGYIIPSSGYTKNKQNFKDKATLTADKSSSTAYMQLSNLTYEDSAVYSCARSDGSYPYYFDYWGQGTTLTVSS VL: ENVLTQSPAIMSASPGEKVTMTCSASSSVSYMHWYQQKSSTSPKLWIYDTSKLASGVPGRFSGSGSGNSYSLTISSMEAEDVATYYCFQGSGYPLTFGSGTKLEIKR , pIC50: < 5.70

Recorded result, 5D9 (antibody, V domains shown) VH: QVQLQQSGAELARPGASVKLSCKASDDTFINYGINWVKQRTGQGLEWIGETFPSNGNTFYNEKFKGKATLTADRSSSTTYMELRSLTSEDAAVYFCARHSNLPYFDHWGQGSTLTVSS VL: DIVMTQSPSSLSVSAGEKVTMSCKSSQSLLNSGNQKNYLAWYQQKPGQPPKLLIYGASTRESGVPERFTGSGSGTDFTLTISSVQAEDLAVYYCQNDHSYPFTFGGGTNLEIKR , pIC50: ~5.85

Recorded result, 1A9 (antibody, V domains shown) VH: EVQLQQSGPELVKPGASVKISCKASGYTFTDYYMNWVKQSHEKSLEWIGDINPNNGGTSYNQKFMGKATLTVDKSSRTAYMELRSLTSEDSTVYYCARWGIYDRFTYWGQGTLVSVSA VL: DIKMTQSPSSMYASLGERVTIACKASQDINSFLSWFQQKPGKSPKTLIYRANRLVDGVPSRFSGSGSGQDYSLTISSLEYEDMGIYYCLQYDEFPLTFGAGTKLELKR , pIC50: 7.49
